system: HS 578T breast; assay: NCI-60 one-dose screen, 48 h (100 = growth as untreated, 0 = no growth, -100 = all killed); conditions: 10 µM
This is part of a sample that, as a whole, favours compounds with a hit. Of some 83,000 tested, about 20% had one in any assay.
EXPERIMENTAL_READOUT: growth (%)
Report the figure in % without appending any unit label.

Known results for molecules:
MOLECULE	growth, %
COc1ccc(/C=N/N=C(\C)c2ccc3c(c2)Nc2ccccc2S3)cc1O	73.7
CC1(C)CC[C@]2(C(=O)N3CCOCC3)CC[C@]3(C)C(=CC[C@@H]4[C@@]5(C)CC[C@H](NCO)C(C)(C)[C@@H]5CC[C@]43C)[C@H]2C1	-68.2
COc1cc2c3c(n(CCCNCCO)c(=O)c2cc1OC)-c1nc2c(cc1C3=O)OCO2	65.6

Q. // output growth; input Nc1nc(Nc2ccc(Cl)cc2)nn1Cc1cccc(Br)c1 ; system HS 578T breast
A. 18.2

Q. // output growth; input CN(C)c1ccc(/C=C/C(=O)c2ccc(NC(=O)CN3C(=O)NC(C)(c4ccccc4)C3=O)cc2)cc1 (centres undefined) ; system HS 578T breast
A. 78

Q. // output growth; input O=C(Nc1ccc(OCc2ccccc2)cc1)Nc1ccc(Cl)c(C(F)(F)F)c1 ; system HS 578T breast
A. -0.0644

Q. // output growth; input CC(=O)c1cc(C(=O)c2ccc3c(c2)NC(=O)CO3)n2ccc3ccccc3c12 ; system HS 578T breast
A. 63.1

----------
System: NCI-H226 lung
Test: NCI-60 one-dose screen, 48 h
Settings: 10 µM
Procedure: Growth inhibition of the NCI-H226 human Non-Small Cell Lung tumor cell line is measured as a screen for anti-cancer activity. Cells are grown in 96 well plates and exposed to the test compound for 48 hours. Compounds are tested at a single concentration, which is 10^-5 M for most compounds. The reported endpoint is percent growth (GI% or GIPRCNT), where numbers from 0 - 100% represent growth inhibition, and numbers from -100% - 0 represent cell death. […]
About 83,000 compounds went through this panel and 20% of them were active in at least one assay; those are over-represented in the sample as a whole. The source made the active and inactive calls. Rule for the calls: active = growth percent below 10; inactive = the rest.
Result category, one only: active, inactive

Answered cases to consult:
COMPOUND	CLASS
OCCNc1oc(-c2ccccc2)nc1[P+](c1ccccc1)(c1ccccc1)c1ccccc1	active
N#Cc1ccc(-c2nn(-c3ccc(C(=O)O)cc3)cc2CNc2cccc(Br)c2)cc1	inactive
O=S(=O)(Nc1ncccn1)c1ccc(-n2c(-c3ccccc3)nc(-c3ccccc3)c2-c2ccccc2)cc1	inactive
CCCn1c(=O)c2[nH]c(-c3ccc(OCc4nc5ccc(C)cc5[nH]4)cc3)nc2n(CCC)c1=O	active
O=C(CNc1nc(-c2ccccc2)cs1)Nc1ccccc1	active

Q. Please share the test call associated with COc1ccc(CN2[C@H](C(=O)NCc3ccc(C(=O)NO)cc3)Cc3c([nH]c4ccccc34)[C@H]2C2CC2)cc1 .
A. inactive

Q. Please share the test call associated with CC(=O)Nc1ccc(-c2cn(-c3cccc(C(=O)Nc4cccc(OC(F)(F)F)c4)c3)nn2)cn1 .
A. inactive

Q. Please share the test call associated with CN1C(=O)N(C)C2SC(N/N=C/c3cccs3)=NC21 (centres undefined) .
A. inactive

Q. Please share the test call associated with CN1C(=O)/C(=C/c2nccs2)SC1=S .
A. inactive

Source of measurements: PubChem BioAssay (NCI)
